// data source = ChEMBL document CHEMBL2331398

test system: M21; assay: Growth inhibition of human M21 cells; format: functional
readout type: GI50 (µM)
A number alone suffices; assume µM.

The examples below pair each entry with its known result.
{"molecule": "Oc1ccc(/C(=C(\\F)c2ccccc2)c2ccc(OCCN3CCCC3)cc2)cc1", "GI50 [µM]": 6.8}
{"molecule": "CN(C)CCOc1ccc(/C(=C(/F)c2ccccc2)c2ccccc2)cc1", "GI50 [µM]": 13.5}
{"molecule": "CN(C)CCOc1ccc(/C(=C(/F)c2ccccc2)c2ccc(O)cc2)cc1", "GI50 [µM]": 4.4}
{"molecule": "Oc1ccc(C(=C(F)c2ccccc2)c2ccccc2)cc1 (mixture of isomers)", "GI50 [µM]": 53}
{"molecule": "F/C(=C(\\c1ccccc1)c1ccc(OCCN2CCCCC2)cc1)c1ccccc1", "GI50 [µM]": 5.8}
{"molecule": "OCc1ccc(/C(=C(\\F)c2ccccc2)c2ccc(OCCN3CCCCC3)cc2)cc1", "GI50 [µM]": 5.9}
{"molecule": "O=Cc1ccc(/C(=C(\\F)c2ccccc2)c2ccc(OCCN3CCCCC3)cc2)cc1", "GI50 [µM]": 4.2}
{"molecule": "Oc1ccc(/C(=C(\\F)c2ccccc2)c2ccc(OCCN3CCCCC3)cc2)cc1", "GI50 [µM]": 15.9}
{"molecule": "F/C(=C(\\c1ccccc1)c1ccc(OCCN2CCCC2)cc1)c1ccccc1", "GI50 [µM]": 44}
{"molecule": "F/C(=C(/c1ccccc1)c1ccc(OCCN2CCCCC2)cc1)c1ccccc1", "GI50 [µM]": 5.6}

Entry Oc1ccc(C(=C(F)c2cccc(C(F)(F)F)c2)c2ccccc2)cc1 needs its GI50 filled in; supply it. 89.6

Entry CC/C(=C(\c1ccccc1)c1ccc(OCCN(C)C)cc1)c1ccccc1 needs its GI50 filled in; supply it. 11
